- system_tested: the molecule itself
- method_notes: SEC

protein	binding result
CP-Ser (αβ heterodimer of S100A8(C42S) and S100A9(C3S)) (complex, human) chain 1: MLTELEKALNSIIDVYHKYSLIKGNFHAVYRDDLKKLLETESPQYIRKKGADVWFKELDINTDGAVNFQEFLILVIKMGVAAHKKSHEESHKE chain 2: MTSKMSQLERNIETIINTFHQYSVKLGHPDTLNQGEFKELVRKDLQNFLKKENKNEKVIEHIMEDLDTNADKQLSFEEFIMLMARLTWASHEKMHEGDEGPGHHHKPGLGEGTP	binds
CP-Ser-AHA (αβ heterodimer) (complex, human) chain 1: MLTELEKALNSIIDVYHKYSLIKGNFHAVYRDDLKKLLETESPQYIRKKGADVWFKELDINTDGAVNFQEFLILVIKMGVAAHKKSHEESHKE chain 2: MTSKMSQLERNIETIINTFHQYSVKLGHPDTLNQGEFKELVRKDLQNFLKKENKNEKVIEHIMEDLDTNADKQLSFEEFIMLMARLTWASHEKMHEGDEGPGAHAKPGLGEGTP	binds
CP-Ser-mT (αβ heterodimer) (complex, human | mouse) chain 1: MLTELEKALNSIIDVYHKYSLIKGNFHAVYRDDLKKLLETESPQYIRKKGADVWFKELDINTDGAVNFQEFLILVIKMGVAAHKKSHEESHKE chain 2: MTSKMSQLERNIETIINTFHQYSVKLGHPDTLNQGEFKELVRKDLQNFLKKENKNEKVIEHIMEDLDTNADKQLSFEEFIMLMARLTWASHEKMHENNPRGHGHSHGKGCGK	binds
